Measured values drawn from paper PMC9188596 for this set.

target: AtAHAS W574L mutant (Arabidopsis thaliana, UniProt P17597, W574L); format: biochemical; conditions: NAI = no accumulative inhibition detected
READOUT_TYPE: kiapp/k3 (efficiency of accumulative inhibition)

# COMPOUND, RESULT
records = [
    ("COc1cc(OC)nc(NC(=O)NS(=O)(=O)N(C)S(C)(=O)=O)n1", "NAI"),
    ("COc1cnc(OC)n2nc(NS(=O)(=O)c3c(OCC(F)F)cccc3C(F)(F)F)nc12", "NAI"),
    ("CC(C)C1(C)N=C(c2nc3ccccc3cc2C(=O)O)NC1=O (stereo not shown)", "NAI"),
    ("COc1cc(OC)nc(Oc2cccc(Oc3nc(OC)cc(OC)n3)c2C(=O)O)n1", ">10^11"),
]

###

Form field: kiapp/k3 (efficiency of accumulative inhibition) (one value per entry).
target: AtAHAS S653T mutant (Arabidopsis thaliana, UniProt P17597, S653T); type: biochemical; details: S653T
Write no unit; give the number alone.

Example entries begin here.
# MOLECULE, QUANTITATIVE_READOUT
rows = [
    ("COc1cnc(OC)n2nc(NS(=O)(=O)c3c(OCC(F)F)cccc3C(F)(F)F)nc12 [PS, penoxsulam]", 126),
    ("COc1cc(OC)nc(Oc2cccc(Oc3nc(OC)cc(OC)n3)c2C(=O)O)n1 [BS, bispyribac]", 39),
]

Attention now shifts to the item below.
Lookup result for COc1cc(OC)nc(NC(=O)NS(=O)(=O)N(C)S(C)(=O)=O)n1 [AS, amidosulfuron] ; measured kiapp/k3 (efficiency of accumulative inhibition): 95

###

Form field: log10 Ki (one value per entry).
target: AtAHAS S653T mutant (Arabidopsis thaliana, UniProt P17597, S653T); assay: biochemical; conditions: Ki, S653T mutant; ± standard error of the mean
Reminder: these figures are log10 of reported Ki, in nM before transformation.

# COMPOUND, log10 Ki
measured = [
    ("CC(C)C1(C)N=C(c2nc3ccccc3cc2C(=O)O)NC1=O (stereo not drawn)", 5.38),
]

Per the reported AtAHAS S653T mutant (Arabidopsis thaliana, UniProt P17597, S653T) data, COc1cnc(OC)n2nc(NS(=O)(=O)c3c(OCC(F)F)cccc3C(F)(F)F)nc12 has log10 Ki of 0.70

Per the reported AtAHAS S653T mutant (Arabidopsis thaliana, UniProt P17597, S653T) data, COc1cc(OC)nc(Oc2cccc(Oc3nc(OC)cc(OC)n3)c2C(=O)O)n1 has log10 Ki of 1.95

Per the reported AtAHAS S653T mutant (Arabidopsis thaliana, UniProt P17597, S653T) data, COc1cc(OC)nc(NC(=O)NS(=O)(=O)N(C)S(C)(=O)=O)n1 has log10 Ki of 2.69

Per the reported AtAHAS S653T mutant (Arabidopsis thaliana, UniProt P17597, S653T) data, COc1cc(OC)nc(Sc2cccc(Cl)c2C(=O)O)n1 has log10 Ki of 2.34

Per the reported AtAHAS S653T mutant (Arabidopsis thaliana, UniProt P17597, S653T) data, COc1cc(OC)n2nc(S(=O)(=O)Nc3c(Cl)ccc(C)c3Cl)nc2n1 has log10 Ki of 1.82

###

biological target: WT AtAHAS (Arabidopsis thaliana); assay: Ki of herbicides, continuous spectrophotometric AHAS assay; format: biochemical; settings: Ki (Supplementary Figure 6), Wild type AtAHAS; fit of % activity remaining vs [I]; two independent replicates
Sequence (P17597 86-670): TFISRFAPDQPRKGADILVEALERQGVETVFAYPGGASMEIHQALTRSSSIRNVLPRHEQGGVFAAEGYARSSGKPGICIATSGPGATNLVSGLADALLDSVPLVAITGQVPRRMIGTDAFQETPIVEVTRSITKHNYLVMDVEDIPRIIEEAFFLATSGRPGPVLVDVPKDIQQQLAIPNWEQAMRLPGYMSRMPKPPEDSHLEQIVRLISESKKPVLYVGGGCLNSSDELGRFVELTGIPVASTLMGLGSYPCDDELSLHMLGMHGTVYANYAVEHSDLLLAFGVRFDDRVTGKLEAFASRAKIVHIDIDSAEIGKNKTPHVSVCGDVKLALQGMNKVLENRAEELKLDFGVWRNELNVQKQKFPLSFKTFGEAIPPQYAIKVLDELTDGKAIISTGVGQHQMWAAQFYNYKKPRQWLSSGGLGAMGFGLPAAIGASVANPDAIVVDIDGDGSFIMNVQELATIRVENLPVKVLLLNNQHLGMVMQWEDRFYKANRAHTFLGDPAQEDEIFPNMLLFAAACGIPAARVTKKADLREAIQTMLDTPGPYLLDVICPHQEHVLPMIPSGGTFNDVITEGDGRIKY
READOUT_TYPE: pKi
Remember the convention: pKi equals -log10 of concentration in molar.

Lookup result for COc1cc(OC)n2nc(S(=O)(=O)Nc3c(Cl)ccc(C)c3Cl)nc2n1 ; measured pKi: 7.54
